Test system: NCI-H522
Assay: NCI tumour cell line growth inhibition, 48 h
Activity calls are given as the source filed them. Rule as the data show it: active = GI50 up to about 1.1 µM and inactive = higher.
Give one outcome, nothing more. List: active, inactive

>>> cat("CC1=CC(=O)C(C(O)(C(F)(F)F)C(F)(F)F)C(C)(C)C1 (centres undefined)")
"inactive"
>>> cat("CC1=C(C)C(=O)C(C2=C(C3=CC(=O)C(C)=C(C)C3=O)C(=O)c3ccccc3C2=O)=CC1=O")
"inactive"

Exercise: Hi team, can someone confirm the assay call for O=c1[nH]nc(-c2cccc(Br)c2)[nH]1 ?
Key: inactive

Exercise: Hi team, can someone confirm the assay call for Cc1ccc2oc(=O)c3c(O)c4cccc(OC5OC(C)C6O[C@@H](c7ccccc7)OC6C5OC5OC(C)C(O)C(O)C5O)c4c4oc(=O)c1c2c34 (some centres undefined) ?
Key: active

----------
System: SF-295
Test: NCI tumour cell line growth inhibition, 48 h
Activity calls are given as the source filed them. Cut-off read from the data, not from the text of the source: active = GI50 up to about 1.1 µM and inactive = higher.
Give one outcome, nothing more. List: active, inactive

>>> cat("COc1cc(/C=C2\\C[C@H]3[C@@H]4CC=C5C[C@@H](O)CC[C@]5(C)[C@H]4CC[C@]3(C)C2=O)cc(OC)c1OC")
"inactive"
>>> cat("O=C1/C(=C(/Br)I)c2ccccc2-c2ccccc21")
"inactive"

Exercise: Hi team, can someone confirm the assay call for COc1ccc(/C=N/n2cnc3c(sc(=S)n3-c3ccccc3)c2=O)cc1 ?
Key: inactive

Exercise: Hi team, can someone confirm the assay call for OC1(C(Sc2cc(C(F)(F)F)cc(C(F)(F)F)c2)Sc2cc(C(F)(F)F)cc(C(F)(F)F)c2)C=CCCC1 (stereo unspecified) ?
Key: inactive

Exercise: Hi team, can someone confirm the assay call for O=C(O)c1ccccc1.[Ag] ?
Key: inactive

Exercise: Hi team, can someone confirm the assay call for [N-]=[N+]=Nc1cc(=O)n(-c2ccccc2)c2ccccc12 ?
Key: inactive

Exercise: Hi team, can someone confirm the assay call for COC(=O)CCCc1ccc2c(c1)CCC2 ?
Key: inactive

Exercise: Hi team, can someone confirm the assay call for COC1(OC)C[C@H](C)[C@@]23O[C@]24c2cc(O)c5c(c2N[C@H]3C#C/C=C\C#C[C@]14O)C(=O)c1ccccc1C5=O ?
Key: active

----------
Tested on: HCT-116
Assay: NCI tumour cell line growth inhibition, 48 h
Activity calls are given as the source filed them. Rule as the data show it: active = GI50 up to about 1.1 µM and inactive = higher.
Listed here: items and their measured GI50.

Below, each entry is followed by its recorded GI50 result.
>>> result_value("COc1cc2[nH]c(=O)c3cc(-c4ccccc4)cc4c(Cl)nc(c1OC)c2c43")
"3.1 µM (inactive)"
>>> result_value("Nc1ncc(Cc2nn3c(COc4ccc(Cl)cc4)nnc3s2)s1")
"> 100 µM (inactive)"
>>> result_value("CCCC1NC(C#N)(C#N)C(CCC)NC1(C#N)C#N (stereo not given)")
"< 0.0158 µM (active)"

Kindly note the recorded GI50 for COc1ccc(/C=N/n2cnc3c(sc(=S)n3-c3ccccc3)c2=O)cc1 , which is > 100 µM (inactive)

Kindly note the recorded GI50 for O=C(O)Cc1cccc2c(=O)c3ccccc3oc12 , which is > 100 µM (inactive)

Kindly note the recorded GI50 for Cc1cccc(Cl)c1NCC(O)CN1CCN(C)CC1 (stereo not given) , which is > 100 µM (inactive)

Kindly note the recorded GI50 for Cc1ccc(-c2cc(-c3ccccc3)c(C#N)c(=O)n2C2OC(CO)C(O)C(O)C2O)cc1 (stereo not given) , which is > 100 µM (inactive)

Kindly note the recorded GI50 for CC(=O)Oc1ccc(-c2c(OC(C)=O)c(OC(C)=O)c(-c3ccc(OC(C)=O)c(OC(C)=O)c3)c(OC(C)=O)c2OC(C)=O)cc1 , which is 18.8 µM (inactive)

Kindly note the recorded GI50 for OC(Cc1cnnc2ccccc12)C(Cl)(Cl)Cl (stereo not given) , which is > 10 µM (inactive)

Kindly note the recorded GI50 for O=C1/C(=C/c2cccc([N+](=O)[O-])c2)Cc2ccccc21 , which is 39.7 µM (inactive)

----------
System: M14
Experiment: NCI tumour cell line growth inhibition, 48 h
Calls of active or inactive are those of the source. Cut-off read from the data, not from the text of the source: active = GI50 up to about 1.1 µM and inactive = higher.
MEASURE: GI50

Below, each entry is followed by its recorded GI50 result.
>>> result_value("N=c1c2c(=S)n(-c3ccccc3)c(=S)n(-c3ccccc3)c2nc(SCCN2CCCC2)n1-c1ccccc1")
"1.6 µM (inactive)"
>>> result_value("CC(C)(C)N1CSC(=S)N(Cc2ccco2)C1")
"2.46 µM (inactive)"
>>> result_value("CCC1NC(=O)C(NC(=O)c2ncccc2O)C(C)OC(=O)C(c2ccccc2)NC(=O)C2CC(=O)CCN2C(=O)C(Cc2ccccc2)N(C)C(=O)C2CCCN2C1=O (stereo unspecified)")
"> 100 µM (inactive)"
>>> result_value("O=C1OCC2C1C1c3ccccc3C(O)c3ccccc3C21 (stereo unspecified)")
"> 100 µM (inactive)"
>>> result_value("CN1CC[N+](C)=C1c1ccccc1")
"> 100 µM (inactive)"
>>> result_value("CCOC(=O)CC(=O)Nc1cccc2nc[nH]c12")
"> 100 µM (inactive)"
>>> result_value("CC(=O)Oc1ccc(-c2c(OC(C)=O)c(OC(C)=O)c(-c3ccc(OC(C)=O)c(OC(C)=O)c3)c(OC(C)=O)c2OC(C)=O)cc1")
"18.1 µM (inactive)"
>>> result_value("Cc1cc(=O)[nH]c2cc(NC(=O)C(C)NC(=O)C(C)NC(=O)C(C)NC(=O)OC(C)(C)C)ccc12 (stereo unspecified)")
"> 15 µM (inactive)"
>>> result_value("O=C(O)Cc1cccc2c(=O)c3ccccc3oc12")
"> 100 µM (inactive)"
>>> result_value("Nc1nnc(NC(=O)C2=NS(=O)(=O)c3cc(S(N)(=O)=O)c(Cl)cc3N2)[nH]1")
"> 100 µM (inactive)"

Kindly note the recorded GI50 for CC1=CC(=O)N(n2c(Cc3ccccc3)n[nH]c2=O)C1=O , which is > 100 µM (inactive)

Kindly note the recorded GI50 for CCOC(=O)C1(C)CCC(C(C(=O)O)C(=O)O)CC1=O (stereo unspecified) , which is > 100 µM (inactive)

Kindly note the recorded GI50 for CO/N=C1\CC(NC(=O)C(F)(F)F)c2ccsc21 (stereo unspecified) , which is > 100 µM (inactive)

Kindly note the recorded GI50 for c1ccc2sc(SCN(C3CCCCC3)C3CCCCC3)nc2c1 , which is > 100 µM (inactive)

Kindly note the recorded GI50 for CCN1C(=O)/C(=C/Nc2ccccc2)S/C1=N/Nc1nc(-c2ccc(O)c(O)c2)cs1 , which is 5.61 µM (inactive)

Kindly note the recorded GI50 for CC(=O)OCc1ccc2oc(=O)c(C(=O)Oc3cccc(Cl)c3)cc2c1 , which is 34.6 µM (inactive)

Kindly note the recorded GI50 for Cc1cccc(NC(=O)c2cccc([N+](=O)[O-])c2O)c1C , which is 41.5 µM (inactive)

Kindly note the recorded GI50 for O=C(Cn1ccnc1[N+](=O)[O-])c1ccccc1 , which is > 100 µM (inactive)

----------
System: HCC 2998
Assay: NCI tumour cell line growth inhibition, 48 h
Calls of active or inactive are those of the source. Cut-off read from the data, not from the text of the source: active = GI50 up to about 1.1 µM and inactive = higher.
Give one outcome, nothing more. List: t = active, f = inactive

Solved cases (4 shown):
>>> cat("NN")
"f"
>>> cat("O=C(CCc1cc(-c2ccc(F)cc2)n[nH]1)N(Cc1ccccc1)Cc1ccccc1")
"f"
>>> cat("CCOP(=O)(OCC)C(F)(F)CC1CCCCC1")
"f"
>>> cat("COc1c(C)c(C/C=C(\\C)CCCCO[Si](C(C)C)(C(C)C)C(C)C)c(OC)c2ccccc12")
"f"

Exercise: Hi team, can someone confirm the assay call for N=C(N)NS(=O)(=O)c1ccc(NCCc2c3ccccc3nc3ccccc23)cc1 ?
Key: f

Exercise: Hi team, can someone confirm the assay call for COc1ccc2c(c1)-c1c(c3cc(OC)ccc3n1CCN(C)C)CC2 ?
Key: f

Exercise: Hi team, can someone confirm the assay call for CCSCCCSCCSCC ?
Key: f

Exercise: Hi team, can someone confirm the assay call for CC(C)CCC[C@@H](C)[C@H]1CC[C@H]2[C@@H]3CC=C4C[C@@H](OC(=O)c5cccc6c(=O)c7ccccc7[nH]c56)CC[C@]4(C)[C@H]3CC[C@]12C ?
Key: f

Exercise: Hi team, can someone confirm the assay call for O=C(Oc1ccc(Cl)cc1[N+](=O)[O-])c1ccccc1 ?
Key: f

Exercise: Hi team, can someone confirm the assay call for CC(C)(C)OC(=O)Cn1ncn(NC(=O)Cc2ccccc2)c1=S ?
Key: f

Exercise: Hi team, can someone confirm the assay call for COC(=O)c1ccccc1CC1Cc2ccc3c(c2C1=O)CCCC3 (stereo not given) ?
Key: f

Exercise: Hi team, can someone confirm the assay call for CCOc1cc2c(cc1OC)c[n+](C)c1c3cc(OC)c(OC)cc3ccc21 ?
Key: f

Exercise: Hi team, can someone confirm the assay call for CC(C)CCC[C@@H](C)C1CCC2[C@@H]3CCC4CC(CCC=C(c5cc(Cl)c(OC(=O)c6ccccc6)c(C(=O)O)c5)c5cc(Cl)c(OC(=O)c6ccccc6)c(C(=O)O)c5)CC[C@]4(C)C3CC[C@@]21C (stereo not given in full) ?
Key: f

Exercise: Hi team, can someone confirm the assay call for COc1ccc2sc(-n3nc4ccccc4c3Nc3nc4ccc(OC)cc4s3)nc2c1 ?
Key: f

Exercise: Hi team, can someone confirm the assay call for Cc1ccc2oc(=O)c3c(O)c4cccc(OC5OC(C)C6O[C@@H](c7ccccc7)OC6C5OC5OC(C)C(O)C(O)C5O)c4c4oc(=O)c1c2c34 (stereo not given in full) ?
Key: t

Exercise: Hi team, can someone confirm the assay call for CCOC(=O)c1cc(=O)n(C)c(=O)n1C ?
Key: f

Exercise: Hi team, can someone confirm the assay call for O=C(NC(CS)C(=O)O)c1c2ccccc2nc2ccccc12 (stereo not given) ?
Key: f

Exercise: Hi team, can someone confirm the assay call for COc1ccc(C2Oc3cc(OC)c(OC)cc3C2CCl)cc1OC (stereo not given) ?
Key: f

Exercise: Hi team, can someone confirm the assay call for O=C(CC1(O)C(=O)Nc2c(Cl)cc(Cl)cc21)c1ccc2ccccc2c1 (stereo not given) ?
Key: f

Exercise: Hi team, can someone confirm the assay call for Cc1cccc(Cl)c1NCC(O)CN1CCN(C)CC1 (stereo not given) ?
Key: f
